Where these numbers come from: patent US9751919B2

- Tested on: S. pneumoniae
- Procedure text: Checkerboard assay (FIC index);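 also: each agent diluted from 0.03 to 4 times its MIC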
- Format: cell-based, Streptococcus pneumoniae
- Reported conditions: antibiotic combined with PEP35; S. pneumoniae-Pen S 71263 (MHB)
Measured quantity: Avg ΣFIC (range)

// known answers, use as guide
# Molecule smiles, Avg ΣFIC (range)
records = [
    ("CO/N=C(\\C(=O)N[C@@H]1C(=O)N2C(C(=O)O)=C(CSc3nc(=O)c(=O)[nH]n3C)CS[C@H]12)c1csc(N)n1", "0.91 (0.62-1.12)"),
    ("CC(=O)NC[C@H]1CN(c2ccc(N3CCOCC3)c(F)c2)C(=O)O1", "0.92 (0.62-1.12)"),
]

Now look at this entry.
Request - read-out Avg ΣFIC (range) | tested on S. pneumoniae | compound `CN(C)c1cc(NC(=O)CNC(C)(C)C)c(O)c2c1C[C@H]1C[C@H]3[C@H](N(C)C)C(O)=C(C(N)=O)C(=O)[C@@]3(O)C(O)=C1C2=O` 0.92 (0.56-1.25)

----------
- Tested on: S. pneumoniae
- Procedure text: Checkerboard assay (FIC index);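 also: each agent diluted from 0.03 to 4 times its MIC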
- Format: cell-based, Streptococcus pneumoniae
- Reported conditions: antibiotic combined with PEP35; S. pneumoniae-Pen R 76065 (MHB)
A collection of molecules and their measured Avg ΣFIC (range)

# Molecule, Avg ΣFIC (range)
rows = [
    ("CN[C@H](CC(C)C)C(=O)N[C@H]1C(=O)N[C@@H](CC(N)=O)C(=O)N[C@H]2C(=O)N[C@H]3C(=O)N[C@H](C(=O)N[C@H](C(=O)O)c4cc(O)cc(O)c4-c4cc3ccc4O)[C@H](O)c3ccc(c(Cl)c3)Oc3cc2cc(c3O[C@@H]2O[C@H](CO)[C@@H](O)[C@H](O)[C@H]2O[C@H]2C[C@](C)(N)[C@H](O)[C@H](C)O2)Oc2ccc(cc2Cl)[C@H]1O [Vancomycin]", "0.86 (0.53-1.25)"),
]

Any idea what Avg ΣFIC (range) was measured for Cc1nnc(SCC2=C(C(=O)O)N3C(=O)[C@@H](NC(=O)Cn4cnnn4)[C@H]3SC2)s1 [Cefazolin] ? 0.70 (0.53-1.06)

Any idea what Avg ΣFIC (range) was measured for CCCCCCCCCC(=O)N[C@@H](Cc1c[nH]c2ccccc12)C(=O)N[C@H](CC(N)=O)C(=O)N[C@@H](CC(=O)O)C(=O)N[C@@H]1C(=O)NCC(=O)N[C@@H](CCCN)C(=O)N[C@@H](CC(=O)O)C(=O)N[C@H](C)C(=O)N[C@@H](CC(=O)O)C(=O)NCC(=O)N[C@H](CO)C(=O)N[C@@H]([C@H](C)CC(=O)O)C(=O)N[C@@H](CC(=O)c2ccccc2N)C(=O)O[C@@H]1C [Daptomycin, daptomycin] ? 1.09 (0.56-1.5)

Any idea what Avg ΣFIC (range) was measured for CC(=O)NC[C@H]1CN(c2ccc(N3CCOCC3)c(F)c2)C(=O)O1 [Linezolid, linezolid] ? 0.74 (0.53-1.12)

Any idea what Avg ΣFIC (range) was measured for CN(C)c1cc(NC(=O)CNC(C)(C)C)c(O)c2c1C[C@H]1C[C@H]3[C@H](N(C)C)C(O)=C(C(N)=O)C(=O)[C@@]3(O)C(O)=C1C2=O [Tigecycline, tigecycline] ? 0.91 (0.62-1.12)

Any idea what Avg ΣFIC (range) was measured for CO/N=C(\C(=O)N[C@@H]1C(=O)N2C(C(=O)O)=C(CSc3nc(=O)c(=O)[nH]n3C)CS[C@H]12)c1csc(N)n1 [Ceftriaxone] ? 1.21 (1.03-1.5)

----------
A collection of molecules and their measured Avg ΣFIC (range)
- Test system: S. pyogenes
- Procedure text: Checkerboard assay (FIC index)
- Type: cell-based, Streptococcus pyogenes
- Reported conditions: antibiotic combined with PEP35; S. pyogenes 79531 (MHB)

// known answers, use as guide
# Molecule, Avg ΣFIC (range)
data = [
    ("CN(C)c1cc(NC(=O)CNC(C)(C)C)c(O)c2c1C[C@H]1C[C@H]3[C@H](N(C)C)C(O)=C(C(N)=O)C(=O)[C@@]3(O)C(O)=C1C2=O [Tigecycline, tigecycline]", "1.1 (1.0-1.25)"),
    ("CC(=O)NC[C@H]1CN(c2ccc(N3CCOCC3)c(F)c2)C(=O)O1 [Linezolid, linezolid]", "1.19 (1.03-1.5)"),
    ("CCCCCCCCCC(=O)N[C@@H](Cc1c[nH]c2ccccc12)C(=O)N[C@H](CC(N)=O)C(=O)N[C@@H](CC(=O)O)C(=O)N[C@@H]1C(=O)NCC(=O)N[C@@H](CCCN)C(=O)N[C@@H](CC(=O)O)C(=O)N[C@H](C)C(=O)N[C@@H](CC(=O)O)C(=O)NCC(=O)N[C@H](CO)C(=O)N[C@@H]([C@H](C)CC(=O)O)C(=O)N[C@@H](CC(=O)c2ccccc2N)C(=O)O[C@@H]1C [Daptomycin, daptomycin]", "1.19 (1.03-1.5)"),
]

Any idea what Avg ΣFIC (range) was measured for CN[C@H](CC(C)C)C(=O)N[C@H]1C(=O)N[C@@H](CC(N)=O)C(=O)N[C@H]2C(=O)N[C@H]3C(=O)N[C@H](C(=O)N[C@H](C(=O)O)c4cc(O)cc(O)c4-c4cc3ccc4O)[C@H](O)c3ccc(c(Cl)c3)Oc3cc2cc(c3O[C@@H]2O[C@H](CO)[C@@H](O)[C@H](O)[C@H]2O[C@H]2C[C@](C)(N)[C@H](O)[C@H](C)O2)Oc2ccc(cc2Cl)[C@H]1O [Vancomycin] ? 1.27 (1.015-2.5)

Any idea what Avg ΣFIC (range) was measured for Cc1nnc(SCC2=C(C(=O)O)N3C(=O)[C@@H](NC(=O)Cn4cnnn4)[C@H]3SC2)s1 [Cefazolin] ? 1.19 (1.03-1.5)

Any idea what Avg ΣFIC (range) was measured for CO/N=C(\C(=O)N[C@@H]1C(=O)N2C(C(=O)O)=C(CSc3nc(=O)c(=O)[nH]n3C)CS[C@H]12)c1csc(N)n1 [Ceftriaxone] ? 1.19 (1.03-1.5)

----------
- System: VRSA
- Procedure text: Checkerboard assay (FIC index)
- Assay type: cell-based, Staphylococcus aureus
- Reported conditions: antibiotic combined with PEP35 (added together); VRSA 105
Measured quantity: Avg ΣFIC (range)

// known answers, use as guide
# Compound, Avg ΣFIC (range)
measured = [
    ("CCCCCCCCCC(=O)N[C@@H](Cc1c[nH]c2ccccc12)C(=O)N[C@H](CC(N)=O)C(=O)N[C@@H](CC(=O)O)C(=O)N[C@@H]1C(=O)NCC(=O)N[C@@H](CCCN)C(=O)N[C@@H](CC(=O)O)C(=O)N[C@H](C)C(=O)N[C@@H](CC(=O)O)C(=O)NCC(=O)N[C@H](CO)C(=O)N[C@@H]([C@H](C)CC(=O)O)C(=O)N[C@@H](CC(=O)c2ccccc2N)C(=O)O[C@@H]1C [Daptomycin, daptomycin]", "0.52 (0.37-0.62)"),
    ("CC(=O)NC[C@H]1CN(c2ccc(N3CCOCC3)c(F)c2)C(=O)O1 [Linezolid, linezolid]", "0.80 (0.5-1.06)"),
    ("Cc1nnc(SCC2=C(C(=O)O)N3C(=O)[C@@H](NC(=O)Cn4cnnn4)[C@H]3SC2)s1 [Cefazolin]", "0.63 (0.5-1.015)"),
]

Request - read-out Avg ΣFIC (range) | tested on VRSA | compound CN(C)c1cc(NC(=O)CNC(C)(C)C)c(O)c2c1C[C@H]1C[C@H]3[C@H](N(C)C)C(O)=C(C(N)=O)C(=O)[C@@]3(O)C(O)=C1C2=O [Tigecycline, tigecycline] 0.93 (0.62-1.12)

----------
- Tested on: VISA
- Procedure text: Checkerboard assay (FIC index);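 also: each agent diluted from 0.03 to 4 times its MIC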
- Format: cell-based, Staphylococcus aureus
- Reported conditions: antibiotic combined with PEP35; VISA 96
A collection of molecules and their measured Avg ΣFIC (range)

# Molecule smiles, System, Result
records = [
    ("C[C@@H](O)[C@H]1C(=O)N2C(C(=O)O)=C(S[C@@H]3CN[C@H](C(=O)N(C)C)C3)[C@H](C)[C@H]12", "VISA", 0.41),
    ("CC(=O)NC[C@H]1CN(c2ccc(N3CCOCC3)c(F)c2)C(=O)O1", "VISA", "0.77 (0.56-1.06)"),
    ("CN(C)c1cc(NC(=O)CNC(C)(C)C)c(O)c2c1C[C@H]1C[C@H]3[C@H](N(C)C)C(O)=C(C(N)=O)C(=O)[C@@]3(O)C(O)=C1C2=O", "VISA", "0.91 (0.62-1.12)"),
]

Request - read-out Avg ΣFIC (range) | tested on VISA | molecule `CN[C@H](CC(C)C)C(=O)N[C@H]1C(=O)N[C@@H](CC(N)=O)C(=O)N[C@H]2C(=O)N[C@H]3C(=O)N[C@H](C(=O)N[C@H](C(=O)O)c4cc(O)cc(O)c4-c4cc3ccc4O)[C@H](O)c3ccc(c(Cl)c3)Oc3cc2cc(c3O[C@@H]2O[C@H](CO)[C@@H](O)[C@H](O)[C@H]2O[C@H]2C[C@](C)(N)[C@H](O)[C@H](C)O2)Oc2ccc(cc2Cl)[C@H]1O` 0.88 (0.53-0.125)

Request - read-out Avg ΣFIC (range) | tested on VISA | molecule `CCCCCCCCCC(=O)N[C@@H](Cc1c[nH]c2ccccc12)C(=O)N[C@H](CC(N)=O)C(=O)N[C@@H](CC(=O)O)C(=O)N[C@@H]1C(=O)NCC(=O)N[C@@H](CCCN)C(=O)N[C@@H](CC(=O)O)C(=O)N[C@H](C)C(=O)N[C@@H](CC(=O)O)C(=O)NCC(=O)N[C@H](CO)C(=O)N[C@@H]([C@H](C)CC(=O)O)C(=O)N[C@@H](CC(=O)c2ccccc2N)C(=O)O[C@@H]1C` 1.21 (1.03-1.5)
